Experiment: qHTS for Activators of Parkin Expression: LOPAC Validation Assay (FLuc Reporter) (AID 720573)
Details: Cell line, PRKN promoter firefly luciferase reporter; series mostly up to 46.1 µM
Results filed as inconclusive are left out. Activity calls are given as the source filed them. Calls follow the shape of the dose curve; as a rule, active = well fitted activation curve with a large enough effect; inconclusive = small, poorly fitted or top-dose-only effect; inactive = no such curve, though single readings can be large or run the other way.
A correct response names exactly one class from Y for active, N for inactive

compound | class
O=C1c2ccccc2C(=O)c2c(NCCc3ccc(O)cc3)ccc(NCCc3ccc(O)cc3)c21 | N
CC[N+](CC)(CC)CC | N
CN1C2CCCC1CC(NC(=O)c1nn(C)c3ccccc13)C2 (stereo unspecified) | N
O=Nc1c(-c2c(O)[nH]c3ccccc23)[nH]c2ccccc12 | Y
Oc1cc2c(c(Cl)c1O)CCNCC2c1ccccc1 (stereo unspecified) | N

Please find the next compound below.
Task: Fill in: this test's call for Nc1c(S(=O)(=O)O)cc(Nc2ccc(Nc3nc(Cl)nc(Nc4ccc(S(=O)(=O)O)cc4)n3)c(S(=O)(=O)O)c2)c2c1C(=O)c1ccccc1C2=O is ___
Result: N
